measurement_notes: Cytotoxicity against mouse C2C12 cells
Type: cell-based
readout_type: CC50

| compound | readout_type | observed_measurement |
| --- | --- | --- |
| c1ccc(CNc2nc(Nc3ccccn3)nc3ccccc23)cc1 | CC50 | > 10 µM |
| Oc1ccc(Nc2nc(NCc3ccccc3)c3ccccc3n2)cc1 | CC50 | > 10 µM |
| O=C(c1ccc(Nc2nc(NCc3ccccc3)c3ccccc3n2)cc1)N1CCOCC1 | CC50 | > 10 µM |
| c1ccc(CNc2nc(Nc3ccccc3)nc3ccccc23)cc1 | CC50 | > 10 µM |
| OCCCNc1nc(Nc2ccc(Cl)cc2)nc2ccccc12 | CC50 | > 10 µM |
| COc1ccc(Nc2nc(NCc3ccccc3)c3ccccc3n2)cc1 | CC50 | 9 µM |
| Clc1ccc(Nc2nccc(NCc3ccccc3)n2)cc1 | CC50 | > 10 µM |
| Clc1ccc(Nc2nc(NCCN3CCOCC3)c3ccccc3n2)cc1 | CC50 | > 10 µM |
| Oc1cccc(Nc2nc(NCc3ccccc3)c3ccccc3n2)c1 | CC50 | 10 µM |
| Cn1cnc2c(NCc3ccccc3)nc(Nc3ccccc3)nc21 | CC50 | > 10 µM |
| O=C(c1ccc(Nc2nc(NCCN3CCOCC3)c3ccccc3n2)cc1)N1CCOCC1 | CC50 | > 10 µM |
| Fc1cccc(Nc2nc(Nc3ccccc3)nc3ccccc23)c1 | CC50 | > 10 µM |
| O=C(Cn1ccnc1[N+](=O)[O-])NCc1ccccc1 [BENZNIDAZOLE] | CC50 | > 50 µM |
| OCCCNc1nc(NCc2ccccc2)c2ccccc2n1 | CC50 | > 10 µM |
| c1ccc(Nc2nc(Nc3ccccc3)c3ccccc3n2)cc1 | CC50 | > 10 µM |
| Clc1ccc(Nc2nc(NCc3ccccc3)c3ccccc3n2)cc1 | CC50 | 10 µM |
| Cn1cnc2c(NCc3ccccc3)nc(Nc3ccc(Cl)cc3)nc21 | CC50 | > 10 µM |
| O=C(Nc1ccccc1)c1ccc(Nc2nc(NCc3ccccc3)c3ccccc3n2)cc1 | CC50 | > 10 µM |
